Entry source: paper PMC9911399

Biological target: T1, RBFOX1 RRM (Homo sapiens, UniProt Q9NWB1 109-208)
T1 sequence: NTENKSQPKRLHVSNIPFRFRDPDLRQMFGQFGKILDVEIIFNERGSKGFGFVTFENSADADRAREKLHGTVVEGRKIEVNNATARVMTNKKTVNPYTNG
Assay: EMSA; HiTS-Eq, 1 nM pool, 10 min; buffer printed only for the single-RNA assays: 10 mM Tris pH 7.5, 150 mM NaCl, 3.4 mM EDTA, 0.001% NP-40, 30 C
Conditions: tags: His6 N-terminal (pET28a); label: 5' 32P
In all, about 16,000 sequences were measured (“ka relative to ugcaugu”: median about 0.0091, highest 2% from about 0.032 on). For the sample, the highest values were picked, then their nearest neighbours and some sequences at random.
We begin with a simple list: items and their reported binding signal.

The cases that follow already have their binding signal on record.
CGCGAUA (DNA:RNA) RNA: GGGAGACCGGAAUUCAGAUUGUCCCGCGAUAUUAAAUCCCGUCGUAGCCACCA DNA 1: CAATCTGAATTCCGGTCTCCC DNA 2: TGGTGGCTACGACGGGATT :: 0.00807 KA relative to UGCAUGU
AUGCGCC (DNA:RNA) RNA: GGGAGACCGGAAUUCAGAUUGUCCAUGCGCCUUAAAUCCCGUCGUAGCCACCA DNA 1: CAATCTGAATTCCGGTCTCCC DNA 2: TGGTGGCTACGACGGGATT :: 0.0101 KA relative to UGCAUGU
CCUCACG (DNA:RNA) RNA: GGGAGACCGGAAUUCAGAUUGUCCCCUCACGUUAAAUCCCGUCGUAGCCACCA DNA 1: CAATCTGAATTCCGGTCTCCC DNA 2: TGGTGGCTACGACGGGATT :: 0.00492 KA relative to UGCAUGU
AAUCAAU (DNA:RNA) RNA: GGGAGACCGGAAUUCAGAUUGUCCAAUCAAUUUAAAUCCCGUCGUAGCCACCA DNA 1: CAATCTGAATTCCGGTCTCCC DNA 2: TGGTGGCTACGACGGGATT :: 0.000959 KA relative to UGCAUGU
GAGUCGU (DNA:RNA) RNA: GGGAGACCGGAAUUCAGAUUGUCCGAGUCGUUUAAAUCCCGUCGUAGCCACCA DNA 1: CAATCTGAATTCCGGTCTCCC DNA 2: TGGTGGCTACGACGGGATT :: 0.0129 KA relative to UGCAUGU
AGAUGAG (DNA:RNA) RNA: GGGAGACCGGAAUUCAGAUUGUCCAGAUGAGUUAAAUCCCGUCGUAGCCACCA DNA 1: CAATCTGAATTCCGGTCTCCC DNA 2: TGGTGGCTACGACGGGATT :: 0.0142 KA relative to UGCAUGU

// query Which binding signal value belongs to UCGUCGA (DNA:RNA) RNA: GGGAGACCGGAAUUCAGAUUGUCCUCGUCGAUUAAAUCCCGUCGUAGCCACCA DNA 1: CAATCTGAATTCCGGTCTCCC DNA 2: TGGTGGCTACGACGGGATT ?
// result 0.014 KA relative to UGCAUGU

// query Return reported binding signal; argument: AAGUACA (DNA:RNA) RNA: GGGAGACCGGAAUUCAGAUUGUCCAAGUACAUUAAAUCCCGUCGUAGCCACCA DNA 1: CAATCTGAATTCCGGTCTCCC DNA 2: TGGTGGCTACGACGGGATT
// result 0.00261 KA relative to UGCAUGU

// query What value of measured binding signal is listed for GAUCGAC (DNA:RNA) RNA: GGGAGACCGGAAUUCAGAUUGUCCGAUCGACUUAAAUCCCGUCGUAGCCACCA DNA 1: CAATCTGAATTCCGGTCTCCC DNA 2: TGGTGGCTACGACGGGATT ?
// result 0.0165 KA relative to UGCAUGU
